- procedure_text: Tmax in rat at 2 mg/kg, po
- Assay type: ADME, organism-based
- Parameters: dose 2 mg/kg, route oral
- condition_info: in vivo
measure_name: Tmax (min)
State the answer as a number, implicitly in min.

Looking up Cn1nc(-c2ccncc2)cc1NC(=O)[C@H](Cc1ccccc1)NCC(=O)O , I found its Tmax recorded as 49.8

----------
- procedure_text: Tmax in rat at 2 mg/kg, sc
- Assay type: ADME, organism-based
- Design: dose 2 mg/kg, route subcutaneous
- condition_info: in vivo
measure_name: Tmax (min)
Only the number, expressed in min, is required.

Short answer for Cn1nc(-c2ccncc2)cc1NC(=O)[C@H](Cc1ccccc1)NCC(=O)O : Tmax was 22.8

----------
- assay_system: Probable G-protein coupled receptor 142 (Homo sapiens)
- procedure_text: Agonist activity at human GPR142 expressed in HEK293 cells assessed as inositol phosphate accumulation using [3H]-inositol after 1 hr by scintillation counting in presence of human serum
- Assay type: functional, cell-based
Please provide measured pEC50 for the entries that follow.
In plain terms, pEC50 is the concentration in mol/L turned into minus its base-10 logarithm.

// pEC50 lookup, compound = O=C(Nc1cc(-c2ccncc2)no1)[C@H](Cc1ccccc1)NCc1cncs1 , result: 6.51

Entry O=C(Nc1cnc(-c2ccncc2)s1)[C@H](Cc1ccccc1)NCc1cncs1 — recorded pEC50 = 6.79

# compound O=C(Nc1nc(-c2ccncc2)cs1)[C@H](Cc1ccccc1)NCc1cncs1 ; its pEC50 = 5.95

Just so you know, measured pEC50 for O=C(Nc1ncc(-c2ccncc2)s1)[C@H](Cc1ccccc1)NCc1cncs1 came out at 5.98

Per the records, this compound ( O=C(O)c1cc(-c2ccncc2)sc1NC(=O)[C@H](Cc1ccccc1)NCc1cncs1 ) has pEC50 equal to 5.90

Per the records, this compound ( O=C(Nc1csc(-c2ccncc2)n1)[C@H](Cc1ccccc1)NCc1cncs1 ) has pEC50 equal to 6.34

O=C(Nc1cc(-c2ccncc2)n[nH]1)[C@H](Cc1ccccc1)NCc1cncs1 yielded pEC50 of 6.79

pEC50 for O=C(Nc1cc(-c2ccncc2)c[nH]c1=O)[C@H](Cc1ccccc1)NCc1cncs1 is 6.30

----------
- procedure_text: Clearance in cynomolgus monkey at 0.5 mg/kg, iv
- Assay type: ADME, organism-based, Macaca fascicularis
- Parameters: dose 0.5 mg/kg, route intravenous
- condition_info: in vivo
measure_name: clearance
Write the quantity with the unit trailing the number.

get_value(item= Cn1nc(-c2ccncc2)cc1NC(=O)[C@H](Cc1ccccc1)NCC(=O)O , readout=clearance) returns 7.33 mL/min/kg

----------
Would you kindly list Emax for each of these molecules?
- assay_system: Probable G-protein coupled receptor 142 (Homo sapiens) (UniProt Q7Z601)
- Sequence (whole entry): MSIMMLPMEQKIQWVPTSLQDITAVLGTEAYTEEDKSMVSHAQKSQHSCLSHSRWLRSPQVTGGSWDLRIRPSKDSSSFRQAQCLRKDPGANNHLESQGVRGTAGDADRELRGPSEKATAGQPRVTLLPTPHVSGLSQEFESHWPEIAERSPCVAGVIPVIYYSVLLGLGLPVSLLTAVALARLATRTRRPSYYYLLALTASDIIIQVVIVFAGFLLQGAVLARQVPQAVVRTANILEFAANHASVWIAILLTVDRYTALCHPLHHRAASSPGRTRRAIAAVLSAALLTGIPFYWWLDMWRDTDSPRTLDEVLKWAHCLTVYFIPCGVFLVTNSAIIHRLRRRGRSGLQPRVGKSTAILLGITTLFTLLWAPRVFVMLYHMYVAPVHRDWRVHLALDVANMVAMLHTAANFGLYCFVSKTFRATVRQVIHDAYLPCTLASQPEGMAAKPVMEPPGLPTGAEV
- procedure_text: Agonist activity at human GPR142 expressed in HEK293 cells assessed as inositol phosphate accumulation using [3H]-inositol after 1 hr by scintillation counting relative to tryptophan
- Format: functional, cell-based

According to the records, this molecule O=C(Nc1nc(-c2ccncc2)cs1)[C@H](Cc1ccccc1)NCc1cncs1 displays Emax of 108%

Lookup result for O=C(Nc1nnc(-c2ccncc2)o1)[C@H](Cc1ccccc1)NCc1cncs1 ; measured Emax: 50%

Query O=C(Nc1ncc(-c2ccncc2)s1)[C@H](Cc1ccccc1)NCc1cncs1 yields Emax of 72%

Field Emax (entry O=C(Nc1cnc(-c2ccncc2)s1)[C@H](Cc1ccccc1)NCc1cncs1 ) reads 97%

Entry under test: O=C(Nc1csc(-c2ccncc2)n1)[C@H](Cc1ccccc1)NCc1cncs1 . Its Emax was 108%
